Reported GI50, OVCAR-8 ovarian.

Previously resolved entries follow.
Kindly state the measured GI50 obtained for O=C(NNc1ccc(F)cc1)C1CCC(CNS(=O)(=O)c2ccc(Cl)c(Cl)c2)CC1 (centres undefined) with OVCAR-8 ovarian.
8790 nM

Kindly state the measured GI50 obtained for Fc1ccc(-c2nn3c(-c4cc(C(F)(F)F)cc(C(F)(F)F)c4)nnc3s2)cc1 with OVCAR-8 ovarian.
1770 nM

Kindly state the measured GI50 obtained for CC(=O)[CH-]C(=O)c1ccccc1.CC(=O)[CH-]C(=O)c1ccccc1.CC[C@H](/C=C/C(C)[C@H]1CCC2[C@@H]3CC=C4C[C@@H]([O-])CC[C@]4(C)C3CC[C@@]21C)C(C)C.CC[O-].[Ti+4] (some centres undefined) with OVCAR-8 ovarian.
> 100000 nM

Next:
Kindly state the measured GI50 obtained for CCCC[n+]1c(/C=C\c2c(OC)cc(OC)cc2OC)ccc2ccccc21 with OVCAR-8 ovarian.
613 nM

----------
Measured TGI accompanies every entry in the list below.
tested on: KM20L2 colon; assay: NCI tumour cell line growth inhibition, 48 h

Previously resolved entries follow.
Kindly state the measured TGI obtained for CC(=O)OCC1=C(C(=O)O)C(c2ccc3c(c2)OCO3)c2cc3c(cc2O1)OCO3 (stereo not given) with KM20L2 colon.
> 100 µM

Kindly state the measured TGI obtained for CC(=O)[CH-]C(=O)c1ccccc1.CC(=O)[CH-]C(=O)c1ccccc1.CC1(C)OCC(C2OC3OC(C)(C)OC3C2[O-])O1.CC1(C)OCC(C2OC3OC(C)(C)OC3C2[O-])O1.[Ti+4] (stereo not given) with KM20L2 colon.
> 100 µM

Kindly state the measured TGI obtained for O=C(/C=C/c1ccccc1Cl)c1cccc2ccccc12 with KM20L2 colon.
19.6 µM

Kindly state the measured TGI obtained for COC(=O)C1=Cc2cc(OC)c(OC)cc2[C@H](c2ccc(OC)c(OC)c2)C1C(=O)OC (stereo not given in full) with KM20L2 colon.
> 100 µM

Kindly state the measured TGI obtained for Cc1ccc2c(c1)C1(OC(=O)c3ccccc31)c1ccc(F)cc1O2 (stereo not given) with KM20L2 colon.
> 100 µM

Kindly state the measured TGI obtained for C/C=C(/CCC1NCCC2c3ccccc3NC12)[Si](C)(C)C (stereo not given) with KM20L2 colon.
16.2 µM

Kindly state the measured TGI obtained for CSc1nc2c(nc(N)n2C2OC(COC(C)=O)C(OC(C)=O)C(OC(C)=O)C2OC(C)=O)c(=O)n1C (stereo not given) with KM20L2 colon.
> 100 µM

Kindly state the measured TGI obtained for Cc1ccc(S(=O)(=O)N2c3ccccc3[C@H]3CCC=C[C@H]32)cc1 with KM20L2 colon.
10.3 µM

Kindly state the measured TGI obtained for NC(=O)c1ncn(CCN2CCN(C(=O)NCCCCCCNC(=O)N3CCN(CCn4cnc(C(N)=O)c4N)CC3)CC2)c1N with KM20L2 colon.
> 100 µM

Now examine the next entry.
Kindly state the measured TGI obtained for C[C@H](NC(=O)n1c2ccccc2c2ccccc21)C(=O)O with KM20L2 colon.
> 100 µM

----------
Reported GI50, U251 CNS.

Previously resolved entries follow.
// returns reported GI50 for input CC1=C(C(=O)Nc2ccc3[nH]ncc3c2)C(c2ccc(Cl)c(Cl)c2)CC(=O)N1 (stereo not given)
> 25000 nM

// returns reported GI50 for input O=c1c2cccc(F)c2sc2c(N3CCNCC3)nc3ccccc3c12
1390 nM

// returns reported GI50 for input COc1ccc(-c2nc(Nc3ccc(-c4nc5ccccc5[nH]4)cc3)nc(N3CCOCC3)n2)cc1
2040 nM

// returns reported GI50 for input O=c1c2c(c3ccccc3n1-c1ccccc1)NC(=S)NC2c1ccc(Cl)cc1 (stereo not given)
2040 nM

// returns reported GI50 for input COc1cc2nc(-c3ccc(Cl)cc3)cc(OCCCN3CCCC3)c2cc1OC
1790 nM

// returns reported GI50 for input C=C1CCC2C3(C)COC(c4c(OC)cccc4OC)OC3CCC2(C)C1C/C=C1/C(=O)OCC1O (stereo not given)
1910 nM

// returns reported GI50 for input O=C(N=Nc1c(O)[nH]c2ccccc12)c1oc2ccccc2c1CN1CCN(c2ccccc2)CC1
1970 nM

// returns reported GI50 for input CCCCCc1cc[n+](CC(=O)c2ccc([N+](=O)[O-])cc2)cc1
4440 nM

Next:
// returns reported GI50 for input O=C(c1ccco1)c1c(C(F)(F)F)nc2ccc(C(F)(F)F)cc2[n+]1[O-]
25900 nM

// returns reported GI50 for input COC(=O)c1ccc2c(c1)C(=O)c1c-2n(C)c(=O)c2cc(OC)c(OC)cc12
19800 nM
